system: C. krusei ATCC 2340; assay: microbe, parasite or virus in culture; details: ATCC 2340, 48 h
Where a SMILES comes first, the peptide text is derived from it. Bridges are numbered along the chain shown (N, C = ends). [ ]: non-standard residue; d: D form. S5 = C=CCCC[C@](C)(N)C(=O)O
Measured Property: Minimum inhibitory concentration (MIC)

Compound | Tgt | Observed
CC[C@H](C)[C@H](NC(=O)[C@H](CCCCN)NC(=O)[C@H](CCCCN)NC(=O)[C@]1(C)CCCC=CCCC[C@](C)(NC(=O)CNC(C)=O)C(=O)N[C@@H](Cc2ccccc2)C(=O)N[C@@H](CC(=O)O)C(=O)N[C@@H]([C@@H](C)CC)C(=O)N1)C(=O)N[C@@H](C)C(=O)N[C@@H](CCC(=O)O)C(=O)N[C@@H](CO)C(=O)N[C@@H](Cc1ccccc1)C(N)=O [Sau-2] (Ac-G[S5]FDI[S5]KKIAESF-NH2; staple 2-6) | C. krusei ATCC 2340 | >128 µg/mL
